Assay: Measurement of LogP values by HPLC on reversed phase columns (EEC directive 79/831 Annex V.A8)
Assay type: physicochemical
Marks after values point to notes of the source that are not given here.
outcomeMeasure: LogP

Study these solved cases before continuing.
Ask: Please report the recorded LogP for COc1ccc(CNc2nsc(C(=O)NC(C)c3nccs3)c2Cl)cc1 (centres unmarked) .
Reply: 2.82[a]

Ask: Please report the recorded LogP for COc1ccc(CNc2nsc(C(=O)NC(C)c3cccc4ccccc34)c2Cl)cc1 (centres unmarked) .
Reply: 4.32[a]

Ask: Please report the recorded LogP for Cc1ccc(NC(=O)c2cc(N(Cc3ccccc3)Cc3ccccc3)ns2)cc1Cl .
Reply: 5.68[a]

Ask: Please report the recorded LogP for Nc1nsc(C(=O)NCc2ccc(Cl)cc2)c1Cl .
Reply: 2.16[a]

Query molecule follows.
Ask: Please report the recorded LogP for C[C@H](NC(=O)c1snc(NCc2ccccc2)c1Cl)C1CCCCC1 .
Reply: 4.74[a]

====

Give LogP for every item shown.
Experiment: Measurement of LogP values by HPLC on reversed phase columns (EEC directive 79/831 Annex V.A8)
Type: physicochemical
Marks after values point to notes of the source that are not given here.

Ask: Please report the recorded LogP for Cc1c(N)nsc1C(=O)NCc1cc(F)cc(F)c1F .
Reply: 1.82[a]

Ask: Please report the recorded LogP for O=C(NCc1ccc(Cl)cc1)c1snc(N(Cc2ccccc2)Cc2ccccc2)c1-c1ccc(F)cc1 .
Reply: 5.72[a]

Ask: Please report the recorded LogP for CC(c1cccc(C(F)(F)F)c1)N(C(=O)c1snc(N)c1Cl)C1CC1 (stereo not shown) .
Reply: 3.29[a]

Ask: Please report the recorded LogP for N#Cc1ccc(CNC(=O)c2snc(N)c2Cl)c(F)c1 .
Reply: 1.64[a]

Ask: Please report the recorded LogP for CC(C)(NC(=O)c1snc(NCc2ccccc2)c1Cl)C1CCCCC1 .
Reply: 5.35[a]

# batch size: 4; output LogP per entry
1. CC1(C)CC(CNC(=O)c2snc(N)c2Cl)C1
2. CCOc1c(N)nsc1C(=O)NCc1ccc(Cl)cc1
3. COc1ccc(CNc2nsc(C(=O)N(c3ccc(F)cc3F)C3CC3)c2Cl)cc1
4. COc1ccc(CNc2nsc(C(=O)N(Cc3c(C)cc(C)cc3C)C3CC3)c2Cl)cc1

Reply:
["2.49[a]", "2.26[a]", "4.02[a]", "4.94[a]"]

====

Assay: Measurement of LogP values by HPLC on reversed phase columns (EEC directive 79/831 Annex V.A8)
Assay type: physicochemical
Details: HPLC LC-UV, acidic range, 0.1% formic acid in water and acetonitrile as eluent
So basically: chromatographic logP at 4 or higher? That is 1 (yes). Lower than 4? That is 0 (no).

As a guide, the following entries are already answered.
Ask: Given CCOC(=O)c1cc(N(Cc2ccccc2)Cc2ccccc2)ns1 , state whether its chromatographic logP is at least 4.
Reply: 1 (yes)

Ask: Given O=C(O)c1cc(N(Cc2ccccc2)Cc2ccccc2)ns1 , state whether its chromatographic logP is at least 4.
Reply: 0 (no)

Ask: Given CCOC(=O)c1snc(N(Cc2ccccc2)Cc2ccccc2)c1C(F)F , state whether its chromatographic logP is at least 4.
Reply: 1 (yes)

Ask: Given CCOC(=O)c1snc(N(Cc2ccccc2)Cc2ccccc2)c1Br , state whether its chromatographic logP is at least 4.
Reply: 1 (yes)

Ask: Given c1ccc(CN(Cc2ccccc2)c2ccsn2)cc1 , state whether its chromatographic logP is at least 4.
Reply: 1 (yes)

Ask: Given CCOC(=O)c1snc(N(Cc2ccccc2)Cc2ccccc2)c1C1CC1 , state whether its chromatographic logP is at least 4.
Reply: 1 (yes)

Now turn to the next compound.
Ask: Given O=C(O)c1snc(N(Cc2ccccc2)Cc2ccccc2)c1C(F)F , state whether its chromatographic logP is at least 4.
Reply: 0 (no)

====

Test: Measurement of LogP values by HPLC on reversed phase columns (EEC directive 79/831 Annex V.A8)
Type: physicochemical
Marks after values point to notes of the source that are not given here.
outcomeMeasure: LogP

Ask: Please report the recorded LogP for CON(Cc1ccc(F)cc1F)C(=O)c1snc(N)c1Cl .
Reply: 2.50[a]

Ask: Please report the recorded LogP for COc1ccc(CNc2nsc(C(=O)N(Cc3cc(C)ccc3F)C3CC3)c2Cl)cc1 .
Reply: 4.46[a]

Ask: Please report the recorded LogP for CC(=O)N(C(C)=O)c1nsc(C(=O)NCc2ccc(Cl)cc2)c1Cl .
Reply: 2.99[a]

Ask: Please report the recorded LogP for Nc1cc(C(=O)NCCc2ncc(C(F)(F)F)cc2Cl)sn1 .
Reply: 2.01[a]

More entries:
Ask: Please report the recorded LogP for COc1ccc(CNc2nsc(C(=O)NCc3cccs3)c2Cl)cc1 .
Reply: 3.31[a]

====

Assay: Measurement of LogP values by HPLC on reversed phase columns (EEC directive 79/831 Annex V.A8)
Type: physicochemical
Marks after values point to notes of the source that are not given here.
outcomeMeasure: LogP

# batch size: 8; output LogP per entry
1. COc1ccc(CNc2nsc(C(=O)NCc3cn(C4CCCC4)nc3C)c2Cl)cc1 [I-1339]
2. Nc1nsc(C(=S)NCc2ccc(Cl)cc2)c1Cl [I-1026]
3. COc1ccc(CNc2nsc(C(=O)NC(c3ccccc3C)C(C)C)c2Cl)cc1 (stereo not shown) [I-1192]
4. COc1ccc(CNc2nsc(C(=O)NC(C)c3cccc(OC)c3)c2Cl)cc1 (stereo not shown) [I-1234]
5. Nc1nsc(C(=O)NCc2ccc(Cl)cc2F)c1Cl [I-181]
6. C[C@H](NC(=O)c1snc(NC(=O)C(F)F)c1Cl)C1CCCCC1 [I-522]
7. Nc1nsc(C(=O)NCc2c(F)cc(F)cc2F)c1Cl [I-134]
8. Nc1cc(C(=O)NCCc2ccccc2)sn1 [I-854]

Reply:
1: 3.23[a]; 2: 3.12[a]; 3: 4.69[a]; 4: 3.68[a]; 5: 2.40[a]; 6: 3.06[a]; 7: 1.96[a]; 8: 1.52[a]

# batch size: 2; output LogP per entry
1. CCn1nc(C)c(CNC(=O)c2snc(NCc3ccc(OC)cc3)c2Cl)c1C [I-1214]
2. Nc1nsc(C(=O)NCc2ccnc(F)c2)c1Cl [I-038]

Reply:
1: 2.57[a]; 2: 1.04[a]

====

Give LogP for every item shown.
Test: Measurement of LogP values by HPLC on reversed phase columns (EEC directive 79/831 Annex V.A8)
Format: physicochemical
Marks after values point to notes of the source that are not given here.

Study these solved cases before continuing.
Ask: Please report the recorded LogP for CC(c1cc(Cl)cc(Cl)c1)N(C(=O)c1cc(N(Cc2ccccc2)Cc2ccccc2)ns1)C1CC1 (centres unmarked) [I-912] .
Reply: 6.54[a]

Ask: Please report the recorded LogP for COc1ccc(CNc2nsc(C(=O)N(Cc3ccccc3)C3CC3)c2Cl)cc1 [I-897] .
Reply: 4.14[a]

Ask: Please report the recorded LogP for C#Cc1c(N)nsc1C(=O)NCC1CCCCC1F (centres unmarked) [I-1359] .
Reply: 2.05[a]

Ask: Please report the recorded LogP for COc1c(N)nsc1C(=O)NCC1CCCCCC1 [I-735] .
Reply: 2.50[a]

Ask: Please report the recorded LogP for Nc1nsc(C(=O)NCc2ccc(F)c(Oc3ccccc3)c2)c1Cl [I-237] .
Reply: 2.90[a]

# batch size: 6; output LogP per entry
1. CC(C)c1ccccc1CN(C(=O)c1snc(N)c1Cl)C1CC1 [I-118]
2. Cc1c(N)nsc1C(=O)NCc1c(F)cccc1Cl [I-587]
3. COc1ccc(CNc2nsc(C(=O)NCc3cccc(C)n3)c2Cl)cc1 [I-1345]
4. COc1ccc(CNC(=O)c2snc(N)c2Cl)cc1F [I-240]
5. Nc1cc(C(=O)N(Cc2ccc(Cl)cc2Cl)C2CC2)sn1 [I-967]
6. N#CC(NC(=O)c1snc(N)c1Br)C1CCCCC1 (centres unmarked) [I-833]

Reply:
3.33[a]
1.61[a]
1.78[a]
1.91[a]
2.90[a]
2.21[a]

====

Assay: Measurement of LogP values by HPLC on reversed phase columns (EEC directive 79/831 Annex V.A8)
Format: physicochemical
Marks after values point to notes of the source that are not given here.
outcomeMeasure: LogP

Study these solved cases before continuing.
Ask: Please report the recorded LogP for COc1ccc(CNc2nsc(C(=O)NCc3ncccc3OC)c2Cl)cc1 .
Reply: 2.70[a]

Ask: Please report the recorded LogP for CC1(C)CC(CNC(=O)c2snc(N)c2Br)C1 .
Reply: 2.60[a]

Ask: Please report the recorded LogP for Nc1nsc(C(=O)NCC2CCOC2)c1Cl (stereo not shown) .
Reply: 0.73[a]

Ask: Please report the recorded LogP for COc1ccc(CNc2nsc(C(=O)NCC34CCC(CC3)C4)c2Cl)cc1 .
Reply: 4.29[a]

Ask: Please report the recorded LogP for COc1ccc(CNc2nsc(C(=O)NCc3cnccn3)c2Cl)cc1 .
Reply: 2.26[a]

Ask: Please report the recorded LogP for C[C@H](NC(=S)c1snc(NCC(F)(F)F)c1Cl)C1CCCCC1 .
Reply: 5.14[a]

Ask: Please report the recorded LogP for COc1ccc(CNC(=O)c2snc(N)c2C)cn1 .
Reply: 0.96[a]

Ask: Please report the recorded LogP for Nc1nsc(C(=O)NCC2CCCCCC2)c1Cl .
Reply: 2.86[a]

# batch size: 2; output LogP per entry
1. COc1cc(F)ccc1CNC(=O)c1snc(NC(=O)C(F)F)c1Cl
2. C[C@H](NC(=O)c1snc(N(Cc2ccccc2)Cc2ccccc2)c1C1CC1)C1CCCCC1

Reply:
["2.23[a]", "6.20[a]"]

Value source: patent US20190110476A1
